Biological target: Neuronal acetylcholine receptor; alpha4/beta2 (Rattus norvegicus, UniProt P09483+P12390)
Sequence (P09483 whole entry): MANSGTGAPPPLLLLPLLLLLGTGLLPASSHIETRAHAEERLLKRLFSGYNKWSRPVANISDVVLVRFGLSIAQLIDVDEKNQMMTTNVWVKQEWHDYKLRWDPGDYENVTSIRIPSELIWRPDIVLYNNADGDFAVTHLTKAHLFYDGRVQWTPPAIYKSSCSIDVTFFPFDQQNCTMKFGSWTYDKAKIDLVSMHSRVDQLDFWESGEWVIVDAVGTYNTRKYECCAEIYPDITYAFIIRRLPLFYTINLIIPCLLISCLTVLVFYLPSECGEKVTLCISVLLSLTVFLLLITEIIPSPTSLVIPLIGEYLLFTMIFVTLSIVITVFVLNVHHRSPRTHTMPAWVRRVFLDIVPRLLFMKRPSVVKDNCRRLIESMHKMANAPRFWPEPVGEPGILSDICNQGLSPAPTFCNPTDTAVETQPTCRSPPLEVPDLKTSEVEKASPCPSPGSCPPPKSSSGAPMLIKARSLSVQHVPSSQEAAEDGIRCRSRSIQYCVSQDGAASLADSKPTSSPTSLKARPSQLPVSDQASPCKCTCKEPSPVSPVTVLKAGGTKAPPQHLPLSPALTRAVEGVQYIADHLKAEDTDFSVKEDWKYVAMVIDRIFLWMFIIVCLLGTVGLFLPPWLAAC
Sequence (P12390 whole entry): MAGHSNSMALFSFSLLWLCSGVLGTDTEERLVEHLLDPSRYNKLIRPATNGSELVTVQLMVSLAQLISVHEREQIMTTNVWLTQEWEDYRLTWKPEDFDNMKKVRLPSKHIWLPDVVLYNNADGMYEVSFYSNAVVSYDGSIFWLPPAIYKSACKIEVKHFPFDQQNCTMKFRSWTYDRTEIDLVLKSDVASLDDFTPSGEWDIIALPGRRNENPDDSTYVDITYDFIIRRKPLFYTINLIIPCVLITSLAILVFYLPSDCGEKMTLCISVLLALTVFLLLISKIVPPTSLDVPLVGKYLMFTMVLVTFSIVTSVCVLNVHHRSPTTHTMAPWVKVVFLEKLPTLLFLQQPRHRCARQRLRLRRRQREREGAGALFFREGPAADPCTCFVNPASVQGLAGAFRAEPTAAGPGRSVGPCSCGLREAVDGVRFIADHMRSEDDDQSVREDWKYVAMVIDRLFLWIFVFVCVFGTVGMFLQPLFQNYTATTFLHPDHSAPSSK
Test: Binding affinity towards Nicotinic acetylcholine receptor alpha4-beta2 in rat brain using [3H]-cytisine as radioligand
pKi: −log10 of the molar value.
Please note: Condition met applies when pKi is 10 or greater, and Condition not met applies otherwise.

Query: pKi >= 10 for C=Cc1ccc(OC[C@@H]2CCN2)cn1 ?
Result: Condition not met

Query: Form field: pKi at least 10? Entry: Clc1ccncc1OC[C@@H]1CCN1
Result: Condition not met

Query: Hello, I need to know if CC(=O)NCc1cncc(OC[C@@H]2CCN2)c1 has measured pKi not below 10. Thanks!
Result: Condition not met

Query: Can Clc1ccc(OC[C@@H]2CCN2)cn1 be said to have pKi at or above 10?
Result: Condition met

Query: Evaluate Cc1cncc(OC[C@@H]2CCN2)c1 : pKi at minimum 10?
Result: Condition met

Query: Answer whether pKi of CCOc1cncc(OC[C@@H]2CCN2)c1 is greater than or equal to 10.
Result: Condition met

Query: Check this compound for pKi at or above 10: COc1ccc(OC[C@@H]2CCN2)cn1
Result: Condition not met

Query: Say whether Clc1cncc(OC[C@@H]2CCN2)c1 shows pKi of 10 or more.
Result: Condition met

Query: Hi team, for CC1(C)CN[C@H]1COc1ccc(Cl)nc1 , is the recorded pKi at or above 10?
Result: Condition not met

Query: pKi >= 10 for Clc1ccncc1OC[C@H]1CCN1 ?
Result: Condition not met

Query: Record c1ccc(-c2ccc(OC[C@@H]3CCN3)cn2)cc1 ; criterion: pKi no lower than 10. Met?
Result: Condition not met

Query: Confirm if pKi reported for the compound Cc1nc(Cl)ccc1OC[C@@H]1CCN1 is 10 or above.
Result: Condition not met

Query: Exam item: decide whether the reported pKi for Cc1ncccc1OC[C@@H]1CCN1 is at least 10.
Result: Condition not met

Query: # check: pKi of CCc1ccc(OC[C@@H]2CCN2)cn1 is greater than or equal to 10
Result: Condition not met

Query: Is it the case that N#Cc1cncc(OC[C@@H]2CCN2)c1 has pKi reaching or exceeding 10?
Result: Condition met

Query: Is pKi for Brc1ccc(OC[C@@H]2CCN2)cn1 at or above 10?
Result: Condition met

Query: Is the recorded value of pKi equal to or greater than 10 for this compound? Clc1cc(OC[C@@H]2CCN2)cnc1Cl
Result: Condition met

Query: Entry FC(F)(F)c1cncc(OC[C@@H]2CCN2)c1 : is its pKi no less than 10?
Result: Condition not met

Query: Please indicate if the recorded pKi for NCc1cncc(OC[C@@H]2CCN2)c1 meets or exceeds 10.
Result: Condition not met

Query: Kindly determine if pKi recorded for c1ccc(-c2cncc(OC[C@@H]3CCN3)c2)cc1 is above or exactly 10.
Result: Condition met

Query: Tell me whether pKi is at least 10 here: CCCc1cncc(OC[C@@H]2CCN2)c1
Result: Condition met

Query: API: above_or_equal(metric=pKi, cutoff=10) for item Clc1ncc(OC[C@@H]2CCN2)cc1Br
Result: Condition met

====

Target: Neuronal acetylcholine receptor; alpha4/beta2 (Rattus norvegicus, UniProt P09483+P12390)
Assay: Binding affinity towards Nicotinic acetylcholine receptor alpha4-beta2 in rat brain using [3H]-cytisine as radioligand
endpoint: pKi
The read-out pKi is expressed as -log10 of concentration in moles per litre.

Query: Could you share which pKi value was measured for Cc1ccc(OC[C@@H]2CCN2)cn1 ?
Result: 10.24

Query: Endpoint output: pKi of Oc1cncc(OC[C@H]2CCN2)c1 . Value?
Result: 10.06

Query: pKi for Fc1ccc(OC[C@@H]2CCN2)cn1 ?
Result: 10.24
